Target: IGF-1R (human cytoplasmic domain fused with GST) (Homo sapiens, UniProt P08069)
Construct: The human cytoplasmic domain of IGF-1R was cloned by fusion with glutathione S-transferase (GST); made in house; host or cells: SF21 insect cells (baculovirus, pFastBac-GST)
Sequence (P08069 960-1367 limits assumed): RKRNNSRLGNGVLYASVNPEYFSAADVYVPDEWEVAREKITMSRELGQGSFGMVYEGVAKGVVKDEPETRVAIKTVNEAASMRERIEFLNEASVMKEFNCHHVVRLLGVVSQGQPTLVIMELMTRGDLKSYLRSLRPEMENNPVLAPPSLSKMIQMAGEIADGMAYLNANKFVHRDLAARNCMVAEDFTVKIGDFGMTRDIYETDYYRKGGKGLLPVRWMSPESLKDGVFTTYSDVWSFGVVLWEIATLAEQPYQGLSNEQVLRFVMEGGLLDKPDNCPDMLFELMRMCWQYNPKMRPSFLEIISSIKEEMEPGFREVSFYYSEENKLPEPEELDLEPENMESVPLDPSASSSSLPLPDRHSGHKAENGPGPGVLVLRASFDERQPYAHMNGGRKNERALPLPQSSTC
Assay: Kinase IGF-1R test (Test A): inhibition of autophosphorylation of the enzyme, HTRF
Format: biochemical
Details: preincubation with enzyme 90 minutes; 120 μM ATP; read-out: Test A 90′ IC50

{"Molecule": "CC(C)(C)c1ccc(N2C(=O)N(Cc3ccnc(NC(=O)Nc4cccnc4)c3)C(C)(C)C2=O)cc1 [Example 31O]", "IC50": "> 100 nM"}
{"Molecule": "CC(C)(C)c1ccc(N2C(=O)N(Cc3ccnc(NC(=O)NC4CCCCC4)c3)C(C)(C)C2=O)cc1", "IC50": "10 to 100 nM"}
{"Molecule": "CC(C)(C)c1ccc(N2C(=O)N(Cc3ccnc(Nc4ccc(CCN5CCCC5)cc4)c3)C(C)(C)C2=O)cc1 [Example 31U]", "IC50": "< 10 nM"}
{"Molecule": "CN(C)C(=O)Nc1cc(CN2C(=O)N(c3ccc(OC(F)(F)F)c(NC(=O)[C@H](N)c4ccccc4)c3)C(=O)C2(C)C)ccn1", "IC50": "10 to 100 nM"}
{"Molecule": "CC(C)(C)c1ccc(N2C(=O)N(Cc3ccnc(Nc4ccc(Cl)nc4)c3)C(C)(C)C2=O)cc1 [Example 31L]", "IC50": "10 to 100 nM"}
{"Molecule": "CC(C)(C)c1ccc(N2C(=O)N(Cc3ccnc(N)n3)C(C)(C)C2=O)cc1", "IC50": "10 to 100 nM"}
{"Molecule": "CCCCNC(=O)Nc1cc(CN2C(=O)N(c3ccc(C(C)(C)C)cc3)C(=O)C2(C)C)ccn1", "IC50": "10 to 100 nM"}
{"Molecule": "CC(C)(C)c1ccc(N2C(=O)N(Cc3ccnc(NC(=O)NCCN4CCCC4)c3)C(C)(C)C2=O)cc1", "IC50": "10 to 100 nM"}
{"Molecule": "CC(C)NCC(=O)N1CC(C)(C)c2ccc(N3C(=O)N(Cc4ccnc(NC(=O)N(C)C)c4)C(C)(C)C3=O)cc21 [Example 31E]", "IC50": "> 100 nM"}
